Assay: Rat study: drug plasma levels (pharmacokinetics)
Assay type: in vivo
Settings: Sprague Dawley, plasma, 0.1 mg/kg, Dose 0.1, Multiple, n = 2
Measurement Name: Cmax (ng/mL)
Only the number, expressed in ng/mL, is required.

Request: Given O=C(O)COc1ccc2c(c1)CCN(Cc1ccc(-c3ccc(C(F)(F)F)cc3)s1)CC2 , state its recorded Cmax.
Result: 57

* * *

Assay: Rat study: drug plasma levels (pharmacokinetics)
Type: in vivo
Settings: Sprague Dawley, plasma, 3 mg/kg, Dose 3, Single, n = 2, read-out: t½
Measurement Name: half-life

Request: Given O=C(O)COc1ccc2c(c1)CCN(Cc1ccc(-c3ccc(C(F)(F)F)cc3)s1)CC2 , state its recorded half-life.
Result: ~29 h
